A collection of binders and their measured Improvement in pH responsiveness of inhibitory peptide relative to WT
study.target: T1, thermostable variant of Streptomyces mobaraensis transglutaminase (Streptomyces mobaraensis, UniProt P81453 79-407)
T1 sequence: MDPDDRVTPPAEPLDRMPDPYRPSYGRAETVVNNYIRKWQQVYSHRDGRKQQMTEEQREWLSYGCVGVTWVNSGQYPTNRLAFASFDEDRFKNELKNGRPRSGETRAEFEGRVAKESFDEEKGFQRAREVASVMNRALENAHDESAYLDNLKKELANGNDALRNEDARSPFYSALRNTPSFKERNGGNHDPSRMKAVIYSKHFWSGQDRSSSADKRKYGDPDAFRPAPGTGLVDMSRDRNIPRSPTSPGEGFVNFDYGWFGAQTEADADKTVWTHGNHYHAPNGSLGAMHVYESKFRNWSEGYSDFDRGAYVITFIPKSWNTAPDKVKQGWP
assay.overview: cell-based or functional assay

> print(dat)
                                     binder  value.reported
1  MPNGAGEETKSYAETYRLTADDVANINALNESAPAASSAGPSFRAP [pro-peptide variant D2P]        > 5 fold
2  MDNGAGEETKDYAETYRLTADDVANINALNESAPAASSAGPSFRAP [pro-peptide variant S11D]      > 1.2 fold
3  MDNGAGEETKSYAETYRLTAFDVANINALNESAPAASSAGPSFRAP [pro-peptide variant D21F]      > 1.2 fold

Task: So what's the measured Improvement in pH responsiveness of inhibitory peptide relative to WT for this one? MDNGAGEETKSYAETYRKTADDVANINALNESAPAASSAGPSFRAP [pro-peptide variant L18K]
Result: > 1.2 fold

Task: Consider next the binder MDNGAGEETKKYAETYRLTADDVANINALNESAPAASSAGPSFRAP [pro-peptide variant S11K] in the same way.
Result: > 1.2 fold

Task: Consider next the binder MDNGAGEEVKSYAETYRLTADDVANINALNESAPAASSAGPSFRAP [pro-peptide variant T9V] in the same way.
Result: > 1.2 fold

Task: Consider next the binder MDNGAGEESKSYAETYRLTADDVANINALNESAPAASSAGPSFRAP [pro-peptide variant T9S] in the same way.
Result: > 1.2 fold

Task: Consider next the binder MINGAGEETKSYAETYRLTADDVANINALNESAPAASSAGPSFRAP [pro-peptide variant D2I] in the same way.
Result: > 1.2 fold
